Molecular target: human OCT2 (Homo sapiens)
Sequence (O15244 1-555): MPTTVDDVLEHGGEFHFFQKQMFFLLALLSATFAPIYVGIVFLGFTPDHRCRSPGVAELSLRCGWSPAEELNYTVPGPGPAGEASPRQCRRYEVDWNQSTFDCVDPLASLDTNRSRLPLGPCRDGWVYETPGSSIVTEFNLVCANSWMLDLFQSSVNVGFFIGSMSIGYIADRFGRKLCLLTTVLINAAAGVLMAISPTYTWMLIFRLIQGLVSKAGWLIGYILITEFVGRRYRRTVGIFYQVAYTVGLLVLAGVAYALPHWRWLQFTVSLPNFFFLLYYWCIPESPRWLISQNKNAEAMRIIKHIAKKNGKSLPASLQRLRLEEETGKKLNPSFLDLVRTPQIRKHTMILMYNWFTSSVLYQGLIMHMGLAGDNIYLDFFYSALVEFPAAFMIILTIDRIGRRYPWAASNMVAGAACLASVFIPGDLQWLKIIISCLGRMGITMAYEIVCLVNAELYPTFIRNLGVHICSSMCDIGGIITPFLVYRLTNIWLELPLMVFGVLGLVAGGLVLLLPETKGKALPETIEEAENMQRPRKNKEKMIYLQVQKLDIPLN
Assay: OCT inhibition in transfected cells ([3H]ASP+ uptake)
Conditions: uptake of [3H]ASP+ (5 μM) in COS cells transfected with human OCT2, 20 min, 37° C.
PARAMETER: pIC50
Quick note: pIC50 values are minus log10 of concentrations in mol/L.

Identify measured pIC50 corresponding to "COc1ccc2c(c1)C=C/C(=C/c1cc[n+](C(C)C)c3ccccc13)N2C(C)C.[I-]"
7.09
